- testedOn: PD-L1 (human)
- Sequence (chain, as listed by the source): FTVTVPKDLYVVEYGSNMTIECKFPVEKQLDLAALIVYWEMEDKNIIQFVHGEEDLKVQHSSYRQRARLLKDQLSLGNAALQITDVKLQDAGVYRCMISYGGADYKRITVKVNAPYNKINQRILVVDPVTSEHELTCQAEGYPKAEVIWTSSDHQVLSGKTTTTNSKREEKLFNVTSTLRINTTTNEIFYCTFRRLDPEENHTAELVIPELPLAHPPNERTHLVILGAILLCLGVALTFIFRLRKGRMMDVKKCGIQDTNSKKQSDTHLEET
- testSummary: flow cytometry, CHO cells stably expressing PD-L1
Listed binders paired with reported Fold change to WT
Could you give me the number in fold? Just the number is fine.

# example entries with known answers
binder	Fold change to WT (fold)
CD80 variant E7D/E35D/M47I/L97Q IgV-Fc (Fc fusion) VIHVTKDVKEVATLSCGHNVSVEELAQTRIYWQKDKKMVLTMMSGDINIWPEYKNRTIFDITNNLSIVILALRPSDEGTYECVVLKYEKDAFKREHQAEVT	1.84
CD80 variant Q33L/E35D/M47I/L85Q IgV-Fc (Fc fusion) VIHVTKEVKEVATLSCGHNVSVEELAQTRIYWLKDKKMVLTMMSGDINIWPEYKNRTIFDITNNLSIVILALRPSDEGTYECVVQKYEKDAFKREHLAEVT	8.05

Input line: GET /values?readout=Fold change to WT&item= CD80 variant E35D/M47L/L85Q IgV-Fc (Fc fusion) VIHVTKEVKEVATLSCGHNVSVEELAQTRIYWQKDKKMVLTMMSGDLNIWPEYKNRTIFDITNNLSIVILALRPSDEGTYECVVQKYEKDAFKREHLAEVT
Output line: 4.18

Input line: GET /values?readout=Fold change to WT&item= CD80 variant V22A/R29H/E35D/D46E/M47I IgV-Fc (Fc fusion) VIHVTKEVKEVATLSCGHNVSAEELAQTHIYWQKDKKMVLTMMSGEINIWPEYKNRTIFDITNNLSIVILALRPSDEGTYECVVLKYEKDAFKREHLAEVT
Output line: 3.2

Input line: GET /values?readout=Fold change to WT&item= CD80 variant Y31S/E35D/M47L/T79L/E88G IgV-Fc (Fc fusion) VIHVTKEVKEVATLSCGHNVSVEELAQTRISWQKDKKMVLTMMSGDLNIWPEYKNRTIFDITNNLSIVILALRPSDEGLYECVVLKYGKDAFKREHLAEVT
Output line: 4.9

Input line: GET /values?readout=Fold change to WT&item= CD80 variant A26E/Q33L/E35D/M47L IgV-Fc (Fc fusion) VIHVTKEVKEVATLSCGHNVSVEELEQTRIYWLKDKKMVLTMMSGDLNIWPEYKNRTIFDITNNLSIVILALRPSDEGTYECVVLKYEKDAFKREHLAEVT
Output line: 7.67

Input line: GET /values?readout=Fold change to WT&item= CD80 variant Q27H/Q33L/E35D/M47V/N55D/L85Q/K89N IgV-Fc (Fc fusion) VIHVTKEVKEVATLSCGHNVSVEELAHTRIYWLKDKKMVLTMMSGDVNIWPEYKDRTIFDITNNLSIVILALRPSDEGTYECVVQKYENDAFKREHLAEVT
Output line: 1.86

Input line: GET /values?readout=Fold change to WT&item= CD80 variant H18Y/Q33L/E35D/M47I IgV-Fc (Fc fusion) VIHVTKEVKEVATLSCGYNVSVEELAQTRIYWLKDKKMVLTMMSGDINIWPEYKNRTIFDITNNLSIVILALRPSDEGTYECVVLKYEKDAFKREHLAEVT
Output line: 6.02

Input line: GET /values?readout=Fold change to WT&item= CD80 variant Q33L/E35D/M43V/M47I/A71G IgV-Fc (Fc fusion) VIHVTKEVKEVATLSCGHNVSVEELAQTRIYWLKDKKMVLTMVSGDINIWPEYKNRTIFDITNNLSIVILGLRPSDEGTYECVVLKYEKDAFKREHLAEVT
Output line: 9.82

Input line: GET /values?readout=Fold change to WT&item= CD80 variant V22A/E23D/Q33L/E35D/M47V IgV-Fc (Fc fusion) VIHVTKEVKEVATLSCGHNVSADELAQTRIYWLKDKKMVLTMMSGDVNIWPEYKNRTIFDITNNLSIVILALRPSDEGTYECVVLKYEKDAFKREHLAEVT
Output line: 9.51

Input line: GET /values?readout=Fold change to WT&item= CD80 variant Q33L/E35D/M47L/A71G/F92S IgV-Fc (Fc fusion) VIHVTKEVKEVATLSCGHNVSVEELAQTRIYWLKDKKMVLTMMSGDLNIWPEYKNRTIFDITNNLSIVILGLRPSDEGTYECVVLKYEKDASKREHLAEVT
Output line: 3.53

Input line: GET /values?readout=Fold change to WT&item= CD80 variant A26E/Q33R/E35D/M47L/L85Q/K86E IgV-Fc (Fc fusion) VIHVTKEVKEVATLSCGHNVSVEELEQTRIYWRKDKKMVLTMMSGDLNIWPEYKNRTIFDITNNLSIVILALRPSDEGTYECVVQEYEKDAFKREHLAEVT
Output line: 9.56

Input line: GET /values?readout=Fold change to WT&item= CD80 variant H18Y/Y31H/E35D/M47V/A71G/L85Q IgV-Fc (Fc fusion) VIHVTKEVKEVATLSCGYNVSVEELAQTRIHWQKDKKMVLTMMSGDVNIWPEYKNRTIFDITNNLSIVILGLRPSDEGTYECVVQKYEKDAFKREHLAEVT
Output line: 9.61

Input line: GET /values?readout=Fold change to WT&item= CD80 variant Q33L/E35D/M47I IgV-Fc (Fc fusion) VIHVTKEVKEVATLSCGHNVSVEELAQTRIYWLKDKKMVLTMMSGDINIWPEYKNRTIFDITNNLSIVILALRPSDEGTYECVVLKYEKDAFKREHLAEVT
Output line: 4.7

Taken from patent US20250163127A1.
